assayed.system: PEDV 3CL^pro (Porcine epidemic diarrhea virus CV777, UniProt P0C6Y4)
Sequence (P0C6Y4 2998-3299 limits assumed): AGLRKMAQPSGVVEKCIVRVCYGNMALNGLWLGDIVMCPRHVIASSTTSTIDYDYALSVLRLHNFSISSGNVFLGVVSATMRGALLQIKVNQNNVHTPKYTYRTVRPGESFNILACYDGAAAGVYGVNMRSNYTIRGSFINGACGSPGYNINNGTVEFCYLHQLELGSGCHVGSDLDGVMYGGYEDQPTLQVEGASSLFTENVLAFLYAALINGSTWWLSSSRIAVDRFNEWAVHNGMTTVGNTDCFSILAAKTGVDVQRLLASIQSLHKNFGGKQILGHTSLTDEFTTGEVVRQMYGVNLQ
value.kind: IC50

1. O=C(O)[C@H]1O[C@@H](Oc2cc3oc(-c4ccccc4)cc(=O)c3c(O)c2O)[C@H](O)[C@@H](O)[C@@H]1O [Baicalin]    65.8 µM
2. O=c1cc(-c2ccccc2)oc2cc(O)c(O)c(O)c12 [Baicalein]    9.5 µM

###

assayed.system: PEDV 3CL^pro (Porcine epidemic diarrhea virus CV777)
Construct: gene rep; mature nsp5 cut from replicase polyproteins pp1a/pp1ab; N- and C-terminal His tags (kept, no cleavage told), pET-28a(+), E. coli BL21(DE3), nickel column; docking used PDB 4XFQ
assay.comment: FRET protease assay, Dabcyl/Edans peptide
Format: biochemical
condition.details: read-out: Inhibitory rate
Below, each of the molecules is paired with its reported inhibition at 20 µM value.
value.kind: inhibition at 20 µM (%)

1) O=c1c(O)c(-c2cc(O)c(O)c(O)c2)oc2cc(O)cc(O)c12    75.3
2) O=c1c(O)c(-c2ccc(O)c(O)c2)oc2cc(O)ccc12    96.8
3) O=c1c(O)c(-c2ccc(O)c(O)c2)oc2cc(O)c(O)c(O)c12    91.8
4) O=C(O[C@@H]1Cc2c(O)cc(O)cc2O[C@H]1c1cc(O)c(O)c(O)c1)c1cc(O)c(O)c(O)c1 [compound 1, (−)-Gallocatechin gallate]    97.7
5) O=c1c(-c2ccc(O)cc2)coc2cc(O)ccc12    91.3

Taken from paper PMC10987960.
